Data provenance: PubChem BioAssay (NCI)

assay: NCI Yeast Anticancer Drug Screen. Data for the bub3 strain (AID 167); details: S. cerevisiae bub3 mutant strain, at 50.0 µM, stronger effect = higher value
The panel holds about 79,000 compounds, 15% with a hit somewhere; the sample as a whole holds those more often.
Listed compounds paired with reported growth inhibition
Only the number, expressed in %, is required.

> print(dat)
                                   compound  obs.value
1  COc1ccc([N+](=O)[O-])cc1NC(=O)c1ccc(Cl)cc1         28
2                CCCCSCCOC(=O)Nc1ccc(Cl)cc1       99.3

Query (compound): O=c1c2ccccc2nnn1OCc1ccccc1 ; field requested: growth inhibition
-12.3

Note, next up: C=C1SC(=Nc2c(C)cccc2Cl)N(C(=O)c2sc3ccccc3c2Cl)C12CCCCC2
8.85

Note, next up: NC(=S)c1ccc[n+]([O-])c1
6.9

Note, next up: COc1cccc(N(CN2C(=O)CCC2OC)C(C)=O)c1 (stereo unspecified)
-7.35

Note, next up: CCC1COS(=O)(=O)CS(=O)(=O)O1 (stereo unspecified)
11.8

Note, next up: Cc1ccc(S(=O)(=O)Nc2cccc3c(=O)[nH]cnc23)cc1
10.3

Note, next up: C1CCCCC/C2=C(\CCCC1)CSCCCS2
0.55

Note, next up: FC(F)(F)c1cccc(N=Cc2ccc(C=Nc3cccc(C(F)(F)F)c3)cc2)c1
-9

Note, next up: O=C(c1ccccc1)c1ccccc1O
10.7

Note, next up: CCOC(=O)c1ccc2c3c(ccc([N+](=O)[O-])c13)CC2
18.5
